The entries below come with measured IC50 values attached.
# System: REH
# assay.summary: Cytotoxicity against human REH cells assessed as reduction in cell viability incubated for 72 hrs by alamar blue assay
# Type: functional, cell-based
A number alone suffices; assume µM.

Solved entries (count: 2):
COc1cc(OC)c(C(=O)/C=C/c2ccccc2)c(O)c1Cc1ccccc1O	9.7
COCOc1cc(OC)cc(OC)c1C(=O)/C=C/c1ccccc1	19.4

Now let's try a different one.
GET /values?readout=IC50&system=REH&item= COCOc1cc(OC)c(C(=O)/C=C/c2ccccc2)c(OCOC)c1
9.2

----------
# Test system: REH
# assay.summary: Cytotoxicity against human REH cells assessed as reduction in cell viability incubated for 72 hrs by alamar blue assay
# Format: functional, cell-based
quantity: IC50

COc1cc(OC)c(C(=O)/C=C/c2ccccc2)c(OC)c1	> 20 µM

Report IC50 for COc1cc(O)c(C(C)=O)c(OC)c1 tested on REH.
> 20 µM

Which measured IC50 belongs to COc1cc(O)c(C(=O)/C=C/c2ccccc2)c(OC)c1 , tested on REH?
> 20 µM

Can you look up IC50 on REH for COc1cc(OC)c(C(C)=O)c(OC)c1 ?
> 20 µM
